Conditions Used: in isopropanol, 313.15 K
Value Type: solubility (mole fraction)

Report measured solubility (mole fraction); entry is Cn1c(=O)cc(N2CCC[C@@H](N)C2)n(Cc2ccccc2C#N)c1=O.O=C(O)c1ccccc1 0.000244

====

Conditions Used: in DMF, 313.15 K
Value Type: solubility (mole fraction)

Return value of solubility (mole fraction) for input Cn1c(=O)cc(N2CCC[C@@H](N)C2)n(Cc2ccccc2C#N)c1=O.O=C(O)c1ccccc1 , no commentary. 0.019
